- measured target: EGFR wild type (EGFR WT) (Homo sapiens (Human))
- Sequence (P00533 25-1210): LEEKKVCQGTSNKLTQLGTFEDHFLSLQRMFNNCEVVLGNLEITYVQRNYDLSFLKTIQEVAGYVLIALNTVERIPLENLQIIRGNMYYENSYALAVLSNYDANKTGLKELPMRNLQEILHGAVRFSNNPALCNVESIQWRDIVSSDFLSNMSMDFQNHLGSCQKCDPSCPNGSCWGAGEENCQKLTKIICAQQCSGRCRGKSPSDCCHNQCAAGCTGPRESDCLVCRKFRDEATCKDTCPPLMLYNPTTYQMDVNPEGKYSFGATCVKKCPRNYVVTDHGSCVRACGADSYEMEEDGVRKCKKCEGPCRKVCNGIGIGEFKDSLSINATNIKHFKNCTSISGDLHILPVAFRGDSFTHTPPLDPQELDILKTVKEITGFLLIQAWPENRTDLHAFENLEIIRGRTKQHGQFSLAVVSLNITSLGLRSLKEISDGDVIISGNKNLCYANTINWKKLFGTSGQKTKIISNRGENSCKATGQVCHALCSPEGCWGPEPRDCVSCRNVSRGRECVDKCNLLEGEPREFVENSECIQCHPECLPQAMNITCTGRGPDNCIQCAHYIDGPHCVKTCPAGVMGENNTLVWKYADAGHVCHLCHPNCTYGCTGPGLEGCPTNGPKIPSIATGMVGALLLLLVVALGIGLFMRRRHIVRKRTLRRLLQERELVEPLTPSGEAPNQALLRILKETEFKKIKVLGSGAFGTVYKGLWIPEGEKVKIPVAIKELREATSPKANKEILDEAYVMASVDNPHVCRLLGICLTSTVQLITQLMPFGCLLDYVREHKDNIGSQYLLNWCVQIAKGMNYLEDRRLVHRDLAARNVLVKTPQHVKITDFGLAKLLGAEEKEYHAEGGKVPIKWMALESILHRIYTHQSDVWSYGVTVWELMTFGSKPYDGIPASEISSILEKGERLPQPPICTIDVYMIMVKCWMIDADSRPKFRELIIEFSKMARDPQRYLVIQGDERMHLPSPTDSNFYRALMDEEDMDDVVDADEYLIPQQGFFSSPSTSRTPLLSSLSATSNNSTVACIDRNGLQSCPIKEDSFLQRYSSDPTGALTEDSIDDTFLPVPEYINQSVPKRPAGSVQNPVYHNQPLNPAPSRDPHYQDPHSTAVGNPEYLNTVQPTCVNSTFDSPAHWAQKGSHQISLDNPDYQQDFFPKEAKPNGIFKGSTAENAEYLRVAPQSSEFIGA
- test protocol: Cellular Phosphorylation Assay, Assay 5 (EGF-stimulated EGFR phosphorylation, NIH 3T3 cells)
- Type: cell-based
- run conditions: cellular EGFR WT phosphorylation, EGF-stimulated
Measured IC50 by item

# annotated cases, reported IC50 shown
C=CC(=O)N1CCN(c2ccc3ncnc(Nc4cc(Cl)c(Oc5ccn6ncnc6c5)cc4F)c3n2)C[C@@H]1C1CC1: ≥ 5 µM
C=CC(=O)N1CC[C@H]2C[C@H](c3ccc4ncnc(Nc5ccc(Oc6ccn7ncnc7c6)c(C)c5F)c4n3)C[C@H]21: 0.339 µM
C=CC(=O)N1CCCC(c2ccc3ncnc(Nc4ccc(Oc5ccn6ncnc6c5)c(C)c4)c3n2)CC1 (stereo not shown): ≥ 5 µM

Look up IC50 for this molecule: C=CC(=O)N1CCCCC(c2ccc3ncnc(Nc4cc(C)c(Oc5ccn6ncnc6c5)cc4F)c3n2)C1 (stereo not shown) 4.49 µM

The measurements presented in this section are drawn from patent US12447153B2.
